- Tested on: ECHOG Barnyardgrass
- TEST NAME: Preemergence herbicidal evaluation, ECHOG
- Format: in vivo, Echinochloa crus-galli, (L.) Beau
- Parameters: scale not given here
- CONDITION LABEL: preemergence, rate 0.062 kg/ha
Decision: ECHCG herbicidal rating beneath 2 gives rule met; ECHCG herbicidal rating meeting or exceeding 2 gives rule not met.

INSERT INTO results (mol, label) VALUES
  ('Cn1c(C(F)(F)F)cc(=O)n(-c2cc3c(cc2F)nnn3-c2ccc(OCC(=O)O)cc2)c1=O', 'rule met'),
  ('Cc1ccc(-n2nnc3cc(F)c(-n4c(=O)cc(C(F)(F)F)n(C)c4=O)cc32)cc1C', 'rule not met'),
  ('CCc1cccc(-n2nnc3cc(F)c(-n4c(=O)cc(C(F)(F)F)n(C)c4=O)cc32)c1', 'rule not met'),
  ('C#CCOC(=O)COc1ccc(C)c(-n2nnc3cc(F)c(-n4c(=O)cc(C(F)(F)F)n(C)c4=O)cc32)c1', 'rule met'),
  ('Cc1ccccc1-n1nnc2cc(F)c(-n3c(=O)cc(C(F)(F)F)n(C)c3=O)cc21', 'rule not met');

Find out if reported ECHCG herbicidal rating for "COc1ccccc1-n1nnc2cc(F)c(-n3c(=O)cc(C(F)(F)F)n(C)c3=O)cc21" is less than 2 rule not met

Similarly, "COC(=O)COc1ccc(C)cc1-n1nnc2cc(F)c(-n3c(=O)cc(C(F)(F)F)n(C)c3=O)cc21" ? rule not met

Similarly, "COc1ccc(-n2nnc3cc(F)c(-n4c(=O)cc(C(F)(F)F)n(C)c4=O)cc32)cc1" ? rule not met

Similarly, "CCc1ccc(-n2nnc3cc(F)c(-n4c(=O)cc(C(F)(F)F)n(C)c4=O)cc32)cc1COC" ? rule met

Similarly, "COC(=O)COc1ccc(C)c(-n2nnc3cc(F)c(-n4c(=O)cc(C(F)(F)F)n(C)c4=O)cc32)c1" ? rule met

###

Listing of recorded Postemergence herbicidal rating TRZAWR by entry.
- System: TRZAWR Wheat, Winter, cv Riband
- TEST NAME: Postemergence herbicidal evaluation, TRZAWR
- Assay type: in vivo, Triticum aestivum
- Set-up: scale not given here
- CONDITION LABEL: 0.032 kg/ha, postemergence spray, rated about two-three weeks after treatment
Response field accepts a number only; no unit should be typed.

A selection of reference data follows.
INSERT INTO assay_data (mol, measured_parameter, endpoint_result) VALUES
  ('COc1ccccc1-n1nnc2cc(F)c(-n3c(=O)cc(C(F)(F)F)n(C)c3=O)cc21', 'Postemergence herbicidal rating TRZAWR', 3.5),
  ('C=CCOc1ccc(-n2nnc3cc(F)c(-n4c(=O)cc(C(F)(F)F)n(C)c4=O)cc32)c(C)c1', 'Postemergence herbicidal rating TRZAWR', 3.0),
  ('COC(=O)COc1ccc(-n2nnc3cc(F)c(-n4c(=O)cc(C(F)(F)F)n(C)c4=O)cc32)c(C)c1', 'Postemergence herbicidal rating TRZAWR', 3.5),
  ('COc1ccc(Cl)cc1-n1nnc2cc(F)c(-n3c(=O)cc(C(F)(F)F)n(C)c3=O)cc21', 'Postemergence herbicidal rating TRZAWR', 4.0),
  ('CCc1cccc(-n2nnc3cc(F)c(-n4c(=O)cc(C(F)(F)F)n(C)c4=O)cc32)c1', 'Postemergence herbicidal rating TRZAWR', 2.5),
  ('COC(=O)COc1ccc(C)c(-n2nnc3cc(F)c(-n4c(=O)cc(C(F)(F)F)n(C)c4=O)cc32)c1', 'Postemergence herbicidal rating TRZAWR', 6.0);

Consider the record given below.
What value of measured Postemergence herbicidal rating TRZAWR is listed for "Cc1ccccc1-n1nnc2cc(F)c(-n3c(=O)cc(C(F)(F)F)n(C)c3=O)cc21" ? 1.5

All values here come from patent US20020111274A1.
